# Method description: solubilization in aqueous buffer
# Format: physicochemical
# Condition info: citrate buffer, aqueous buffer; read-out: concentration solubilized in citrate
Property: solubility

INSERT INTO results (molecule_smiles, property, assay_value) VALUES
  ('Cl[TeH]1(Cl)(Cl)OCCO1', 'solubility', '≥ 5000 µg/mL');

* * *

# Method description: solubilization in aqueous buffer
# Type: physicochemical
# Condition info: phosphate buffer (pbs); read-out: concentration solubilized in phosphate buffer
Property: solubility

INSERT INTO results (molecule_smiles, assay_value) VALUES
  ('Cl[TeH]1(Cl)(Cl)OCCO1', '~200 µg/mL');
